# Tested on: T-Rex 293 cell line SC3 cells lacking increased expression of androgen receptor protein
# Measurement Protocol: Cellular growth inhibition, T-Rex 293 SC3 cells without doxycycline, CellTiter-Glo
# Assay type: cell-based
# Measurement Parameters: 72 h, T-Rex 293 SC3 cells not exposed to doxycycline, CellTiter-Glo 2.0
Known GI50 of a selection of compounds

Smiles Representation | Experimental System | GI50
Cc1sc2c(c1C)C(c1ccc(OC3CC4(CCN(c5ncc(C(=O)N[C@H]6C(C)(C)[C@H](Oc7ccc(C#N)c(Cl)c7)C6(C)C)cn5)CC4)C3)cc1)=NC1(CC1)c1nnc(C)n1-2 | T-Rex 293 cell line SC3 cells lacking increased expression of androgen receptor protein | 500 to 1500 nM
CCNC(=O)C[C@@H]1N=C(c2ccc(N3CCC(OC4CCN(c5ncc(C(=O)N[C@H]6C(C)(C)[C@H](Oc7ccc(C#N)c(Cl)c7)C6(C)C)cn5)CC4)CC3)cc2)c2c(sc(C)c2C)-n2c(C)nnc21 | T-Rex 293 cell line SC3 cells lacking increased expression of androgen receptor protein | 500 to 1500 nM
Cc1sc2c(c1C)C(c1ccc(C#CC3CC4(C3)CN(c3ncc(C(=O)N[C@H]5C(C)(C)[C@H](Oc6ccc(C#N)c(Cl)c6)C5(C)C)cn3)C4)cc1)=N[C@@H](Cc1ncco1)c1nnc(C)n1-2 | T-Rex 293 cell line SC3 cells lacking increased expression of androgen receptor protein | < 500 nM

* * *

# System: T-Rex 293 cell line SC3 cells lacking increased expression of androgen receptor protein
# Measurement Protocol: Cellular growth inhibition, T-Rex 293 SC3 cells without doxycycline, CellTiter-Glo
# Assay type: cell-based
# Measurement Parameters: 72 h, T-Rex 293 SC3 cells not exposed to doxycycline, CellTiter-Glo 2.0
We begin with a simple list: items and their reported GI50.
Readout Label: GI50

Compound | Readout Label | Result
Cc1sc2c(c1C)C(c1ccc([C@H]3C[C@@H]([C@H]4CCN(c5ncc(C(=O)N[C@H]6C(C)(C)[C@H](Oc7ccc(C#N)c(Cl)c7)C6(C)C)cn5)C4)C3)cc1)=N[C@@H](Cc1ncco1)c1nnc(C)n1-2 [Compound I-415] | GI50 | > 3000 nM
Cc1sc2c(c1C)C(c1ccc(N3CC(C4CCN(c5ncc(C(=O)N[C@H]6C(C)(C)[C@H](Oc7ccc(C#N)c(Cl)c7)C6(C)C)cn5)C4)C3)cc1)=NC1(CC1)c1nnc(C)n1-2 (stereo partly drawn) [Compound I-604] | GI50 | < 500 nM
CCNC(=O)C[C@@H]1N=C(c2ccc(OCCOC3CCN(c4ncc(C(=O)N[C@H]5C(C)(C)[C@H](Oc6ccc(C#N)c(Cl)c6)C5(C)C)cn4)CC3)c(F)c2)c2c(sc(C)c2C)-n2c(C)nnc21 [Compound I-76] | GI50 | 500 to 1500 nM
Cc1sc2c(c1C)C(c1ccc(CC3CC4(C3)CN(c3ncc(C(=O)N[C@H]5C(C)(C)[C@H](Oc6ccc(C#N)c(Cl)c6)C5(C)C)cn3)C4)cc1)=N[C@H](Cc1ncco1)c1nnc(C)n1-2 [Compound I-152] | GI50 | > 3000 nM
Cc1sc2c(c1C)C(c1ccc(CC[C@H]3C[C@]4(CCCN(c5ncc(C(=O)N[C@H]6C(C)(C)[C@H](Oc7ccc(C#N)c(Cl)c7)C6(C)C)cn5)C4)C3)cc1)=N[C@@H](Cc1ncco1)c1nnc(C)n1-2 [Compound I-239] | GI50 | > 3000 nM
CCNC(=O)C[C@@H]1N=C(c2ccc(OCCOCCOCCOC3CCN(c4ncc(C(=O)N[C@H]5C(C)(C)[C@H](Oc6ccc(C#N)c(Cl)c6)C5(C)C)cn4)CC3)cc2)c2c(sc(C)c2C)-n2c(C)nnc21 [Compound I-45] | GI50 | 500 to 1500 nM
Cc1sc2c(c1C)C(c1ccc(NC[C@@H]3CN(c4ncc(C(=O)N[C@H]5C(C)(C)[C@H](Oc6ccc(C#N)c(Cl)c6)C5(C)C)cn4)CCO3)cc1)=N[C@@H](Cc1ncco1)c1nnc(C)n1-2 [Compound I-646] | GI50 | < 500 nM
Cc1sc2c(c1C)C(c1ccc(CC[C@H]3CCCC(c4ncc(C(=O)N[C@H]5C(C)(C)[C@H](Oc6ccc(C#N)c(Cl)c6)C5(C)C)cn4)C3)cc1)=N[C@@H](Cc1ncco1)c1nnc(C)n1-2 (stereo partly drawn) [Compound I-298] | GI50 | < 500 nM
CCNC(=O)C[C@@H]1N=C(c2ccc(N3CCC(CN4CC(N(C)c5ncc(C(=O)N[C@H]6C(C)(C)[C@H](Oc7ccc(C#N)c(Cl)c7)C6(C)C)cn5)C4)CC3)cc2)c2c(sc(C)c2C)-n2c(C)nnc21 [Compound I-128] | GI50 | > 3000 nM
Cc1sc2c(c1C)C(c1ccc(C[C@H]3CC[C@@H]4CN(c5ncc(C(=O)N[C@H]6C(C)(C)[C@H](Oc7ccc(C#N)c(Cl)c7)C6(C)C)cn5)CCN4C3)cc1)=C[C@H](Cc1ncco1)c1nnc(C)n1-2 [Compound I-306] | GI50 | < 500 nM
CCNC(=O)C[C@@H]1N=C(c2ccc(CCCCCCOC3CCN(c4ncc(C(=O)N[C@H]5C(C)(C)[C@H](Oc6ccc(C#N)c(Cl)c6)C5(C)C)cn4)CC3)cc2)c2c(sc(C)c2C)-n2c(C)nnc21 [Compound I-90] | GI50 | > 3000 nM
CCNC(=O)C[C@@H]1N=C(c2ccc(N3CC(CC4CN(c5ncc(C(=O)N[C@H]6C(C)(C)[C@H](Oc7ccc(C#N)c(Cl)c7)C6(C)C)cn5)C4)C3)cc2)c2c(sc(C)c2C)-n2c(C)nnc21 [Compound I-127] | GI50 | 500 to 1500 nM
Cc1sc2c(c1C)C(c1ccc(OC3CC4(CCN(c5ccc(C(=O)N[C@H]6C(C)(C)[C@H](Oc7ccc(C#N)c(Cl)c7)C6(C)C)cc5)CC4)C3)cc1)=N[C@@H](Cc1ncco1)c1nnc(C)n1-2 [Compound I-196] | GI50 | > 3000 nM
Cc1sc2c(c1C)C(c1ccc(CCC3CCN(c4ncc(C(=O)N[C@H]5C(C)(C)[C@H](Oc6ccc(C#N)c(Cl)c6)C5(C)C)cn4)CC3)cc1)=N[C@@H](Cc1ncco1)c1nnc(C)n1-2 [Compound I-132] | GI50 | > 3000 nM
CCNC(=O)C[C@@H]1N=C(c2ccc(OCCCOC3CCN(c4ncc(C(=O)N[C@H]5C(C)(C)[C@H](Oc6ccc(C#N)c(Cl)c6)C5(C)C)cn4)CC3)cc2)c2c(sc(C)c2C)-n2c(C)nnc21 [Compound I-62] | GI50 | < 500 nM
Cc1noc2c1-c1ccccc1C(c1ccc(O[C@H]3C[C@]4(CN(c5ncc(C(=O)N[C@H]6C(C)(C)[C@H](Oc7ccc(C#N)c(Cl)c7)C6(C)C)cn5)CCO4)C3)cc1)=N[C@@H]2Cc1ncco1 [Compound I-224] | GI50 | > 3000 nM
CCNC(=O)C[C@@H]1N=C(c2cccc(OCCOCCOC3CCN(c4ncc(C(=O)N[C@H]5C(C)(C)[C@H](Oc6ccc(C#N)c(Cl)c6)C5(C)C)cn4)CC3)c2)c2c(sc(C)c2C)-n2c(C)nnc21 [Compound I-47] | GI50 | 500 to 1500 nM
Cc1sc2c(c1C)C(c1ccc(Cl)cc1)=N[C@H](CC(=O)NCCCCOC1CCN(c3ncc(C(=O)N[C@H]4C(C)(C)[C@H](Oc5ccc(C#N)c(Cl)c5)C4(C)C)cn3)CC1)c1nnc(C)n1-2 [Compound I-21] | GI50 | > 3000 nM

* * *

# Tested on: T-Rex 293 cell line SC3 cells lacking increased expression of androgen receptor protein
# Measurement Protocol: Cellular growth inhibition, T-Rex 293 SC3 cells without doxycycline, CellTiter-Glo
# Type: cell-based
# Measurement Parameters: 72 h, T-Rex 293 SC3 cells not exposed to doxycycline, CellTiter-Glo 2.0
Entries annotated with measured GI50

Compound | GI50
Cc1sc2c(c1C)C(c1ccc(O[C@H]3CCCN(c4ncc(C(=O)N[C@H]5C(C)(C)[C@H](Oc6ccc(C#N)c(Cl)c6)C5(C)C)cn4)C3)cc1)=N[C@@H](Cc1ncco1)c1nnc(C)n1-2 | < 0.5 µM
Cc1sc2c(c1C)C(c1ccc(CN3CC[C@@]4(CCCN(c5ncc(C(=O)N[C@H]6C(C)(C)[C@H](Oc7ccc(C#N)c(Cl)c7)C6(C)C)cn5)C4)C3)cc1)=N[C@@H](Cc1ncco1)c1nnc(C)n1-2 | < 0.5 µM
CCNC(=O)C[C@@H]1N=C(c2ccc(N3CCC(OC4CCN(c5ncc(C(=O)N[C@H]6C(C)(C)[C@H](Oc7ccc(C#N)c(Cl)c7)C6(C)C)cn5)CC4)C3)cc2)c2c(sc(C)c2C)-n2c(C)nnc21 (stereo partly shown) | 0.5 to 1.5 µM
Cc1sc2c(c1C)C(c1ccc(CNC(=O)CNC(=O)c3ncc(C(=O)N[C@H]4C(C)(C)[C@H](Oc5ccc(C#N)c(Cl)c5)C4(C)C)cn3)cc1)=N[C@@H](Cc1ncco1)c1nnc(C)n1-2 | > 3 µM

meta.source: patent US20260062422A1
